Recorded values, source patent US20240101549A1.

Test: Metabolic stability in human liver microsomes (HLM)
Format: in vitro ADME
Details: n = 1 or average of n = 2-3
Values of microsomal CLint greater than or equal to 30 µL/min/mg map to Criterion met; values below map to Criterion not met.

Before answering, review these 4 worked examples.
| COMPOUND | LABEL |
| --- | --- |
| N#C[C@@H]1CSCN1C(=O)CNC(=O)c1ccnc2ccc(N3CC4(CCC4)C3)cc12 [Example 17] | Criterion met |
| N#C[C@@H]1CSCN1C(=O)CNC(=O)c1ccnc2ccc(N3C[C@@H](F)[C@H](F)C3)cc12 (single isomer, unassigned) [Example 214] | Criterion not met |
| N#C[C@@H]1CSCN1C(=O)CNC(=O)c1ccnc2ccc(N3CCCC3C3CC3)cc12 (single isomer, unassigned) [Example 199] | Criterion met |
| CC1CCCN(c2ccc3nccc(C(=O)NCC(=O)N4CSC[C@H]4C#N)c3c2)C1=O (single isomer, unassigned) [Example 204] | Criterion not met |

Asked: Textbook exercise: given the entry CC1(F)CCN(c2ccc3nccc(C(=O)NCC(=O)N4CSC[C@H]4C#N)c3c2)C1 (mixture of isomers) [Example 198] , state whether its microsomal CLint is greater than or equal to 30 µL/min/mg.
Given back: Criterion not met

Asked: Answer whether microsomal CLint of N#C[C@@H]1CSCN1C(=O)CNC(=O)c1ccnc2ccc(N3CC(O)C(F)(F)C3)cc12 (mixture of isomers) [Example 224] is greater than or equal to 30 µL/min/mg.
Given back: Criterion not met

Asked: Hi, just wondering whether CC1CCN(c2ccc3nccc(C(=O)NCC(=O)N4CSC[C@H]4C#N)c3c2)C1=O (single isomer, unassigned) [Example 201] shows microsomal CLint of 30 µL/min/mg or higher.
Given back: Criterion not met
